# Tested on: tRNA
# PROCEDURE_DETAILS: Aminoacylation assay (tRNA charging)
# Type: biochemical
# CONDITIONS_USED: nsAA pAzF
READOUT_LABEL: Km (µM)
Give bare numbers, in µM.

[
  {
    "MOLECULE": "pAzFRS.1: pAcFRS variant D158V, I159M, L162D, A167Y, SEQ ID NO: 10 (protein) MDEFEMIKRNTSEIISEEELREVLKKDEKSALIGFEPSGKIHLGHYLQIKKMIDLQNAGFDIIILLADLHAYLNQKGELDEIRKIGDYNKKVFEAMGLKAKYVYGSEFQLDKDYTLNVYRLALKTTLKRARRSMELIAREDENPKVAEVIYPIMQVNVMHYDGVDVYVGGMEQRKIHMLARELLPKKVVCIHNPVLTGLDGEGKMSSSKGNFIAVDDSPEEIRAKIKKAYCPAGVVEGNPIMEIAKYFLEYPLTIKRPEKFGGDLTVNSYEELESLFKNKELHPMRLKNAVAEELIKILEPIRKRL",
    "OBSERVED_VALUE": 38
  }
]

// next entry
Tell us which Km value is on record for pAzFRS.1.t1: pAcFRS variant D158V, I159M, L162D, A167Y, R257G, SEQ ID NO: 11 (protein) MDEFEMIKRNTSEIISEEELREVLKKDEKSALIGFEPSGKIHLGHYLQIKKMIDLQNAGFDIIILLADLHAYLNQKGELDEIRKIGDYNKKVFEAMGLKAKYVYGSEFQLDKDYTLNVYRLALKTTLKRARRSMELIAREDENPKVAEVIYPIMQVNVMHYDGVDVYVGGMEQRKIHMLARELLPKKVVCIHNPVLTGLDGEGKMSSSKGNFIAVDDSPEEIRAKIKKAYCPAGVVEGNPIMMEIAKYFLEYPLTIKGPEKFGGDLTVNSYEELESLFKNKELHPMRLKNAVAEELIKILEPIRKRL 24
